Source: patent US20250340552A1

biological target: Cbl-B (Homo sapiens, UniProt Q13191); construct: MSD-Based Assay for Degradation of Cbl-B in THP-1 Cells; endogenous in cells; host or cells: THP-1 (title) / Jurkat (protocol text); experiment: MSD-based assay for degradation of Cbl-B in THP-1 cells; format: cell-based; settings: Cbl-B degradation, Jurkat cells seeded (heading: THP-1 cells), 24 hours incubation, MSD readout; read-out: Dmax
Sequence (Q13191 whole entry): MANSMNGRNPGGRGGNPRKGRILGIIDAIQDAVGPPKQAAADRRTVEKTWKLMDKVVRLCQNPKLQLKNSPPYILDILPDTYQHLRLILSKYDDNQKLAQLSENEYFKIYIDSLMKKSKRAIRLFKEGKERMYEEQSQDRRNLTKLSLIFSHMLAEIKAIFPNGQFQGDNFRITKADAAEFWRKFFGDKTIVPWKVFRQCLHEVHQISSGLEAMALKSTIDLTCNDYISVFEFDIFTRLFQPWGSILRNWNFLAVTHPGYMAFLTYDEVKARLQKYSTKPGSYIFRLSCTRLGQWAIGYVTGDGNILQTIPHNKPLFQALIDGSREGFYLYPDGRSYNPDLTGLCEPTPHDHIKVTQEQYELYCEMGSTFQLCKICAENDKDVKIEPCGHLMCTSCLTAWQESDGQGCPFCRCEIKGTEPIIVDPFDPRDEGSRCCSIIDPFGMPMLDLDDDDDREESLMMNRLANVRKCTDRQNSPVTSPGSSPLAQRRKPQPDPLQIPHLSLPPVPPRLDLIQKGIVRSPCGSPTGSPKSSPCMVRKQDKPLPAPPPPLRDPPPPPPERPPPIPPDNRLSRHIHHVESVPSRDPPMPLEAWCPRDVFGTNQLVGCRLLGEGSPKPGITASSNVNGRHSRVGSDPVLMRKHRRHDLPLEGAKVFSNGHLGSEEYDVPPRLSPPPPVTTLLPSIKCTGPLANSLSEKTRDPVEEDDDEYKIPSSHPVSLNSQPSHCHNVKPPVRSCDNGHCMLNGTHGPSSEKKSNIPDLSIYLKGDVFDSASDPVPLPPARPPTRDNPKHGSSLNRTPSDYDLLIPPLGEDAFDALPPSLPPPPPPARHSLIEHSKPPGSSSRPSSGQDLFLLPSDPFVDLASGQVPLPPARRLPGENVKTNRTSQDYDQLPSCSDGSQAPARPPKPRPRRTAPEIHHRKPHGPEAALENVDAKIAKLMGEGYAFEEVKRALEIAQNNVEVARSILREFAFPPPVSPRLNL
OBSERVATION_TYPE: Dmax

Would you please look over these solved cases?
Cn1cnnc1CC1(c2cccc(-n3cc4c(C(F)(F)F)cc(CN5CCC(OCCN6CCC(CN7CCN(c8ccc9c(c8)CN([C@@H]8CCC(=O)NC8=O)C9=O)CC7)CC6)CC5)cn4c3=O)c2)COC1 (single isomer, unassigned): 50 to 70%
CN(CC1CCN(Cc2cc(C(F)(F)F)c3cn(-c4cccc(C5(Cc6nncn6C)COC5)c4)c(=O)n3c2)CC1)C(=O)c1ccc(N2CCN(c3ccc4c(c3)CN([C@H]3CCC(=O)NC3=O)C4=O)CC2)cc1: > 70%

# return Dmax for each item in the list
1. Cn1cnnc1[C@@H](c1cccc(-n2cc3c(C(F)(F)F)cc(CN4CCC[C@H](OCCN5CCC(CN6CCN(c7ccc8c(c7)CN([C@H]7CCC(=O)NC7=O)C8=O)CC6)CC5)C4)cn3c2=O)c1)C1CCC1
2. Cn1cnnc1[C@@H](c1cccc(-n2cc3c(C(F)(F)F)cc(CN4CCC[C@H](OCCc5ccc(CN6CCN(c7ccc8c(c7)CN([C@H]7CCC(=O)NC7=O)C8=O)CC6)cc5)C4)cn3c2=O)c1)C1CCC1 (single isomer, unassigned)

["> 70%", "50 to 70%"]

# return Dmax for each item in the list
1. CN(CCOC1CCN(Cc2cc(C(F)(F)F)c3cn(-c4cccc([C@H](c5nncn5C)C5CCC5)c4)c(=O)n3c2)CC1)C(=O)c1ccc(N2CCC(c3ccc4c(c3)CN([C@H]3CCC(=O)NC3=O)C4=O)CC2)cc1
2. Cn1cnnc1[C@@H](c1cccc(-n2cc3c(C(F)(F)F)cc(CN4CC[C@@H](OCCOCc5ccc(COCCNc6cccc7c6C(=O)N(C6CCC(=O)NC6=O)C7=O)cc5)C4)cn3c2=O)c1)C1CCC1 (stereo partly shown)
3. CN(CCCN1CCN(Cc2cc(C(F)(F)F)c3cn(-c4cccc([C@H](c5nncn5C)C5CCC5)c4)c(=O)n3c2)CC1)C(=O)c1ccc(N2CCN(c3ccc4c(c3)CN([C@@H]3CCC(=O)NC3=O)C4=O)CC2)cc1 (single isomer, unassigned)
4. Cn1cnnc1[C@@H](c1cccc(-n2cc3c(C(F)(F)F)cc(CN4CC(OCCN5CCC(CN6CCN(c7ccc8c(c7)CN(C7CCC(=O)NC7=O)C8=O)CC6)CC5)C4)cn3c2=O)c1)C1CCC1 (stereo partly shown)
5. CN(CCC(=O)N1CCC(CN2CCN(c3ccc4c(c3)CN([C@@H]3CCC(=O)NC3=O)C4=O)CC2)CC1)Cc1cc(C(F)(F)F)c2cn(-c3cccc([C@H](c4nncn4C)C4CCC4)c3)c(=O)n2c1 (single isomer, unassigned)
6. CN(CC1CCN(Cc2cc(C(F)(F)F)c3cn(-c4cccc([C@H](c5nncn5C)C5CCC5)c4)c(=O)n3c2)CC1)C(=O)c1ccc(C2CCN(c3ccc4c(c3)CN([C@@H]3CCC(=O)NC3=O)C4=O)CC2)cc1 (single isomer, unassigned)

> 70%
30 to 50%
> 70%
< 30%
< 30%
30 to 50%
